# Tested Target: CaMyo5
# Protocol Description: SPOT peptide array binding signal intensity (averaged, normalized) (arbitrary units (background-subtracted, floor 0; scale differs between SH3 domains)); higher = stronger binding of the SH3 domain to the peptide
Reported SPOT peptide array binding signal intensity by item:
No unit in the answer, please; the number alone is enough.

# annotated cases, reported SPOT peptide array binding signal intensity shown
QQNRPLPQLPNRNNR | 4
VSKLRSPNTPRRLRK | 3.38
AGKRRLPLVRFKASD | 3

Ask | Consider the binder shown here: `RRRIAYPFYPFKKLG` What is its recorded SPOT peptide array binding signal intensity?
Reply | 0.25

Ask | Consider the binder shown here: `MTKTPETSPPKRPMG` What is its recorded SPOT peptide array binding signal intensity?
Reply | 87.2

Ask | Consider the binder shown here: `FLIKFTPKFPQSIDH` What is its recorded SPOT peptide array binding signal intensity?
Reply | 94

Ask | Consider the binder shown here: `YHSRRHPLALGFKYV` What is its recorded SPOT peptide array binding signal intensity?
Reply | 38.5

All values here come from the supplement of paper PMC4466140.
